biological target: SIK3 (Homo sapiens, UniProt Q9Y2K2); test: NanoBRET target engagement; settings: intact mode, HEK293T, 37 °C, 2 h, tracer displacement
Sequence (Q9Y2K2 whole entry): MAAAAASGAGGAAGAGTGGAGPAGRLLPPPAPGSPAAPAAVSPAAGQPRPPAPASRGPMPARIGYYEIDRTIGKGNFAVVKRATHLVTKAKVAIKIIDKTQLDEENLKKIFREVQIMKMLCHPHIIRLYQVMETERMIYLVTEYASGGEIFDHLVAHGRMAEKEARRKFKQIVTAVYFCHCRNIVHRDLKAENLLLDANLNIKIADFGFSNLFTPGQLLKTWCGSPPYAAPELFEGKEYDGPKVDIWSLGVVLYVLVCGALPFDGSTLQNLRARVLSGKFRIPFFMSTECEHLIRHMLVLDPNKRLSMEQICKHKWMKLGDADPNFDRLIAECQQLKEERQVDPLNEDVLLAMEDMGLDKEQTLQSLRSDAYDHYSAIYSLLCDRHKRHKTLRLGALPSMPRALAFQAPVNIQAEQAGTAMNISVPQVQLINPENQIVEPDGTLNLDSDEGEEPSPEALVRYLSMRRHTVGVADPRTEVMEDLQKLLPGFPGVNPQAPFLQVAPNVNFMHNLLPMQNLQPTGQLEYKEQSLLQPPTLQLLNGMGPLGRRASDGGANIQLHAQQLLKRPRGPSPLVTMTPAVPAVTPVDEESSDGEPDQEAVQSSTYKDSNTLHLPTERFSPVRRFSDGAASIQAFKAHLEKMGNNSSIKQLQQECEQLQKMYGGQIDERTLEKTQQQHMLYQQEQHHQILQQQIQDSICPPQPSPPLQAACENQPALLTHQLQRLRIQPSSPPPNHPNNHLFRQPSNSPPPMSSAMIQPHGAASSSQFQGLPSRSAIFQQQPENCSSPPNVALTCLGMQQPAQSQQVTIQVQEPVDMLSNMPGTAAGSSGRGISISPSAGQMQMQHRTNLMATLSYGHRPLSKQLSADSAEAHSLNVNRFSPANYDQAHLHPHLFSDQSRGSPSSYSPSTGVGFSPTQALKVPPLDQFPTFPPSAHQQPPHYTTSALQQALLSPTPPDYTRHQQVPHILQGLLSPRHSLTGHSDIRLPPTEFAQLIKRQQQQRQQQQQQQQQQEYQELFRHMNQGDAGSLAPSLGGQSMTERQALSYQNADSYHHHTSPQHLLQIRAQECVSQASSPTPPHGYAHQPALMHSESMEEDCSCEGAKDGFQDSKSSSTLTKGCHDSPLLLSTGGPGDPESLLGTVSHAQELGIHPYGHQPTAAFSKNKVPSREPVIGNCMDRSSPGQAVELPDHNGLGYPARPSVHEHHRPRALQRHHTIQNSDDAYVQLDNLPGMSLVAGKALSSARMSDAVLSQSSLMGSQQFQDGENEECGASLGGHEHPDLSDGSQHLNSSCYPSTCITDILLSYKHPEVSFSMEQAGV
pIC50: −log10 of the molar value.
outcome measure: pIC50

CNc1ncc2cc(-c3cc(Br)ccc3Br)c(=O)n(CCCCN)c2n1	5.92
CNc1ncc2cc(-c3cc(Cl)ccc3Cl)c(=O)n(CCCCN)c2n1	6.95
CNc1ncc2cc(-c3cc(F)ccc3F)c(=O)n(CCCCN)c2n1	7.74
CNc1ncc2cc(-c3cc(Br)ccc3Cl)c(=O)n(CCCCN)c2n1	6.45
CNc1ncc2cc(-c3cc(Cl)ccc3Br)c(=O)n(CCCCN)c2n1	6.54

I. CNc1ncc2cc(-c3cc(Br)ccc3Cl)c(=O)n(C[C@H]3OC[C@H](N)CO3)c2n1
II. CNc1ncc2cc(-c3ccccc3Cl)c(=O)n(CCCCN)c2n1
III. CNc1ncc2cc(-c3cc(F)c(-c4cccc(C)n4)cc3F)c(=O)n(CCCCN)c2n1
IV. CNc1ncc2cc(-c3cc(C(F)(F)F)ccc3Cl)c(=O)n(CCCCN)c2n1
Number of compounds to sort: 4. Sort criterion: pIC50, ascending. Enter labels, ranked according to the request.
IV, I, II, III
(IV: 5.60, I: 6.00, II: 7.60, III: 8.40)

###

molecular target: EpHA2 (Homo sapiens, UniProt P29317); experiment: NanoBRET target engagement
Sequence (P29317 24-976): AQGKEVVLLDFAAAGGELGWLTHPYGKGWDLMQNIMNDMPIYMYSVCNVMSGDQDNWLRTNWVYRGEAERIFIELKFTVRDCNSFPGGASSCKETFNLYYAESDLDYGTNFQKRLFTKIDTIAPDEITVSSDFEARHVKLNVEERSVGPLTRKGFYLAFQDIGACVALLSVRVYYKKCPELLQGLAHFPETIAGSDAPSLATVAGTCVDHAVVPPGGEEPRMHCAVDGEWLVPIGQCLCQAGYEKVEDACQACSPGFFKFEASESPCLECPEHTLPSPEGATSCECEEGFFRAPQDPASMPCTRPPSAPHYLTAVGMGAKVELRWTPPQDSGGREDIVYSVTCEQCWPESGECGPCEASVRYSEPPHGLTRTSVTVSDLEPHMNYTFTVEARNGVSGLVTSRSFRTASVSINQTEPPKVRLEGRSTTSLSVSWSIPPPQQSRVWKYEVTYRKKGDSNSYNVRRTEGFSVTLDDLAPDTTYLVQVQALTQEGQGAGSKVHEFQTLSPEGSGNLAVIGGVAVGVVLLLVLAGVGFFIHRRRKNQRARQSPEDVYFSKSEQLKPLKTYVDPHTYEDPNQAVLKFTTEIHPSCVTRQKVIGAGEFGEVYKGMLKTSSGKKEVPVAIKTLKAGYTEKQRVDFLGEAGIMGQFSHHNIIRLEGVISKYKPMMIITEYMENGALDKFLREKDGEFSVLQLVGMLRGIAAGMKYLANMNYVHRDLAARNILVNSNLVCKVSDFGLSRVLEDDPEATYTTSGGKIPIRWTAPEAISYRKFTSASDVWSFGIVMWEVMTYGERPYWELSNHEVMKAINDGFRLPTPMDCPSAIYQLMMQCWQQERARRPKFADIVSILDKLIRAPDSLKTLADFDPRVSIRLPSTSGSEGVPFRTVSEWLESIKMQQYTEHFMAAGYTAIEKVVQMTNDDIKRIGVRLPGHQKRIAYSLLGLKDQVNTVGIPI
outcome measure: pIC50
Friendly reminder that pIC50 comes from taking -log10 of the concentration in mol/L.

Reported pIC50, compound `CNc1ncc2cc(-c3ccccc3Cl)c(=O)n(CCCCN)c2n1` : ____
6.68

###

biological target: EpHB3 (Homo sapiens); assay: NanoBRET target engagement
Sequence (P54753 34-998): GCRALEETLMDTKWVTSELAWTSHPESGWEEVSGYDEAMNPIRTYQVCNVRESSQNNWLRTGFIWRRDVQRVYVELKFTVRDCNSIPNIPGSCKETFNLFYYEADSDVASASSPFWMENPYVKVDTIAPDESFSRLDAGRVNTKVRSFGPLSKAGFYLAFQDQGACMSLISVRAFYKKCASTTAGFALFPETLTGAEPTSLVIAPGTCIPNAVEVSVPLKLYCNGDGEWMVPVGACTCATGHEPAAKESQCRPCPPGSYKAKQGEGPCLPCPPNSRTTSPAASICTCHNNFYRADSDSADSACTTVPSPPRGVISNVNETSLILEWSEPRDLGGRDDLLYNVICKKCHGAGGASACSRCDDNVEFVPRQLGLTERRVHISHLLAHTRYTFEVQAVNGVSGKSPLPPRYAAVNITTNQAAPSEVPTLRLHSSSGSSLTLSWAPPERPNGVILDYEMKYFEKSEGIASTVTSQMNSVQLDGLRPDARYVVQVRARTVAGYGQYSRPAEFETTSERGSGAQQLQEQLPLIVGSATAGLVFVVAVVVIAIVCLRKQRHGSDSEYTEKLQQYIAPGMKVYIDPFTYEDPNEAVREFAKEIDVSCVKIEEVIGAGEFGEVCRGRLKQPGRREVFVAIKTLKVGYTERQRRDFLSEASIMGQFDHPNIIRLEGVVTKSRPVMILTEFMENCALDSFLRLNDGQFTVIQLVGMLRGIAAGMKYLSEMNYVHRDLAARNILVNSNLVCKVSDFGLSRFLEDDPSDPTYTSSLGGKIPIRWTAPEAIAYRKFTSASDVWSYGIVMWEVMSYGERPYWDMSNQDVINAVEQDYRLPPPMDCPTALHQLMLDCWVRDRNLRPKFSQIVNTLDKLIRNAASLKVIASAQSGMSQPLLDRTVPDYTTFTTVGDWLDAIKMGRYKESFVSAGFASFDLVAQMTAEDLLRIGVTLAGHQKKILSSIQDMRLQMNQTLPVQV
pIC50: −log10 of the molar value.
outcome measure: pIC50

CNc1ncc2cc(-c3cc(Cl)ccc3Cl)c(=O)n(CCCCN)c2n1 [compound 8]	< 6.00

Now take the following molecule into account.
Param item = CNc1ncc2cc(-c3ccccc3Cl)c(=O)n(CCCCN)c2n1 [compound 4] ; retrieve measured pIC50.
< 6.00

###

molecular target: EpHA3 (Homo sapiens); test: NanoBRET target engagement
Sequence (P29320 21-983): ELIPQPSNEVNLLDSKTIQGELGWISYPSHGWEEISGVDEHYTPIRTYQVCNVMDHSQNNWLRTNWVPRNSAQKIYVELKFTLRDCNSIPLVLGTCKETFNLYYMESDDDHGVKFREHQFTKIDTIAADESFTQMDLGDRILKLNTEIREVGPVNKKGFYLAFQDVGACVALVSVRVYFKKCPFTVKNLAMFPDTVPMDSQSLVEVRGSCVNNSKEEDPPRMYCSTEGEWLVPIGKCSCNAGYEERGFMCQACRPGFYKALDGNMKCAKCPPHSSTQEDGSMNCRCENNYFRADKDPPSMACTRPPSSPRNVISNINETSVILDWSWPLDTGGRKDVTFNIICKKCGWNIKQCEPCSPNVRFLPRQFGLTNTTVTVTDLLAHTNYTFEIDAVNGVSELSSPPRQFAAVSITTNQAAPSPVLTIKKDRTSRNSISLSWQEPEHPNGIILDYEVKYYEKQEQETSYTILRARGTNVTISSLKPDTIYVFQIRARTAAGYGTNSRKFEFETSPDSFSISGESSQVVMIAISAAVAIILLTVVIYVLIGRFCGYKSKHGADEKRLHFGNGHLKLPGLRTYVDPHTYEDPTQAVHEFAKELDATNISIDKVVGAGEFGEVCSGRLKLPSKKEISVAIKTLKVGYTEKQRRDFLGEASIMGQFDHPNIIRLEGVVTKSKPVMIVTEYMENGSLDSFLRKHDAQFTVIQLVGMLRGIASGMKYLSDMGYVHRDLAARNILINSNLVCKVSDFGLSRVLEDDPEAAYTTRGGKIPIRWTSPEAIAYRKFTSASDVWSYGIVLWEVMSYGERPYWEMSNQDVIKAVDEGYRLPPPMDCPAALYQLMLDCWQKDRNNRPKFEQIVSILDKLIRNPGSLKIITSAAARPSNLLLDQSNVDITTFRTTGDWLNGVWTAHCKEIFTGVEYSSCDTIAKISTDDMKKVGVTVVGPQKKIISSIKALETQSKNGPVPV
outcome measure: pIC50
Convention used: pIC50 is expressed as -log10 of the molar concentration.

I'd like to know its pIC50. The molecule in question is CNc1ncc2cc(-c3ccccc3Cl)c(=O)n(CCCCN)c2n1 [compound 4]
6.50

###

target: MST1 (Homo sapiens); test: biochemical; details: read-out: dTm MST1
Sequence (Q13043 whole entry): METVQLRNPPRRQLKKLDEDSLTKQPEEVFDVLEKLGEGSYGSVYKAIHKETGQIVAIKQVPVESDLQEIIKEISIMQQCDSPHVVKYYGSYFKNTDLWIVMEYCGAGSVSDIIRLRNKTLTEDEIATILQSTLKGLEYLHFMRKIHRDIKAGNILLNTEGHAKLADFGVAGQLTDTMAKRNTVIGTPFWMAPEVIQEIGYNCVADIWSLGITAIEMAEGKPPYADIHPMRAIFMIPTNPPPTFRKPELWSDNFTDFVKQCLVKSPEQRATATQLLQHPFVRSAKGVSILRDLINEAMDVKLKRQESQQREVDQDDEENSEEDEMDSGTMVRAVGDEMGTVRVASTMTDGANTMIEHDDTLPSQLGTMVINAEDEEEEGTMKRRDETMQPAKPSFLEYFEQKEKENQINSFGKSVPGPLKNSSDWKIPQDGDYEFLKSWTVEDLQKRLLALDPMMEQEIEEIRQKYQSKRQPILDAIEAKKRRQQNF
outcome measure: ΔTm at 10 µM (°C)

CNc1ncc2cc(-c3cc(Br)ccc3Br)c(=O)n(CCCCN)c2n1	1.6
CNc1ncc2cc(-c3cc(Br)ccc3Cl)c(=O)n(C[C@H]3OC[C@H](N)CO3)c2n1	1.7
CN[C@@H]1C[C@H]2O[C@@](C)([C@@H]1OC)n1c3ccccc3c3c4c(c5c6ccccc6n2c5c31)C(=O)NC4	13.9

P. CNc1ncc2cc(-c3ccccc3Cl)c(=O)n(CCCCN)c2n1
Q. CNc1ncc2cc(-c3cc(F)c(-c4cccc(C)n4)cc3F)c(=O)n(CCCCN)c2n1
R. CNc1ncc2cc(-c3cc(C(F)(F)F)ccc3Cl)c(=O)n(CCCCN)c2n1
Sort low-to-high on ΔTm at 10 µM, please. Rank the items, then write their labels in that order.
R, P, Q
(R: 0.9 °C, P: 1.9 °C, Q: 2.8 °C)

a. CNc1ncc2cc(-c3cc(Cl)ccc3Cl)c(=O)n(CCCCN)c2n1
b. CNc1ncc2cc(-c3cc(F)ccc3F)c(=O)n(CCCCN)c2n1
I need your help: which of the pair a , b has higher ΔTm at 10 µM? Answer with the label corresponding to your selection.
a
(a: 1.6 °C, b: 0.9 °C)
